study target: human cannabinoid receptor 1 (huCB1), full length, expressed on cells (human, UniProt P21554 1-472)
Sequence (P21554 whole entry): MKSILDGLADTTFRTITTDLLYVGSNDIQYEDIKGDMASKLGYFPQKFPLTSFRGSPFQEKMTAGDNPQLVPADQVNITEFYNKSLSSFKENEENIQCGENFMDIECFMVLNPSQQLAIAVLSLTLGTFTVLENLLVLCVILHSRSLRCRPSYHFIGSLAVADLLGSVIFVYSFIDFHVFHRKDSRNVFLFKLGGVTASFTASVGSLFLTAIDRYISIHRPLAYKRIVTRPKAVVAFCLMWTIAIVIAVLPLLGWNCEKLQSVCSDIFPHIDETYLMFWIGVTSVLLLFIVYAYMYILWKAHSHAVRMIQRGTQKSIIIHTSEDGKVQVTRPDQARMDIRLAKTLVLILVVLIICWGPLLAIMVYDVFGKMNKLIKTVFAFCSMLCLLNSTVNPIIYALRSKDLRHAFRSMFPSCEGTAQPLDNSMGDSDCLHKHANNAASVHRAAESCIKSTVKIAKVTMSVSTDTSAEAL
measurement description: cell-based or functional assay
Please go through the items and note down their n = 2 IC50 (nM), cAMP antagonist assay.
Numbers only, in nM.

[[record]]
binder = "LIBC528141-1 (antibody, V domains shown) VH: QVQLQESGPGLVKPSQTLSLTCTVSGGSIRRGGDYWSWIRQHPGKGLEWIGHVYQTGSTKYNPRFKGRATISVNTYKNQFSLKLSSVTAADTAVYYCARDYDILTGYSYYYYGMDVWGQGTTVTVSS VL: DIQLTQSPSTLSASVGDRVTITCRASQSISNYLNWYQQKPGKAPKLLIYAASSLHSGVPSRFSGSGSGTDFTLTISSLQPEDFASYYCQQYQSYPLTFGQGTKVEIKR"
unit_symbol = "nM"
test_value = 1.84


Quick note, n = 2 IC50 (nM), cAMP antagonist assay for LIBC523844-1 (antibody, V domains shown) VH: QVQLQESGPGLVKPSQTLSLTCTVSGGSIRRGGDYWSWIRQHPGKGLEWIGHVYYTGSTKYNPSFKDRATISVNTYKNQFSLKLSSVTAADTAVYYCARDYDILTGYSYYYYGMDVWGQGTTVTVSS VL: DIVMTQSPLSLPVTPGEPASISCRSSQSLLSSSGANYVDWYLQKPGQSPQLLIYQGSNRASGVPDRFSGSGSGTDFTLKISRVEAEDVGVYYCRQARALPRTFGQGTKVEIKR landed at 1.46
